tested on: abdominal aorta; assay: tissue or blood; details: Mus musculus, read-out: EC50, contractile response, abdominal aorta, male control littermate mice
measurement_type: pEC50
Remember the convention: pEC50 equals -log10 of concentration in molar.

# return recorded pEC50 for entry CNC[C@H](O)c1cccc(O)c1 [Phenylephrine, phenylephrine]
5.72

----------
A collection of compounds and their measured Maximum Response, contraction
test system: abdominal aorta; settings: abdominal aorta, male control littermate mice
Give just the number in g; leave the unit off.

// below: answered compounds
>>> number("NC(=O)CC[C@@H]1NC(=O)[C@H](Cc2ccccc2)NC(=O)[C@H](Cc2ccc(O)cc2)NC(=O)[C@@H](N)CSSC[C@@H](C(=O)N2CCC[C@H]2C(=O)N[C@@H](CCCN=C(N)N)C(=O)NCC(N)=O)NC(=O)[C@H](CC(N)=O)NC1=O [Arginine vasopressin, arginine vasopressin]")
0.29
>>> number("CNC[C@H](O)c1cccc(O)c1 [Phenylephrine, phenylephrine]")
1.18
>>> number("CC[C@H](C)[C@H](NC(=O)[C@H](Cc1ccc(O)cc1)NC(=O)[C@@H](NC(=O)[C@H](CCCNC(=N)N)NC(=O)[C@@H](N)CC(=O)O)C(C)C)C(=O)N[C@@H](Cc1c[nH]cn1)C(=O)N1CCC[C@H]1C(=O)N[C@@H](Cc1ccccc1)C(=O)O [Angiotensin II, angiotensin II]")
0.32

Now for a further compound.
# return recorded Maximum Response, contraction for entry CCCCC[C@H](O)/C=C/[C@@H]1[C@@H](C/C=C\CCCC(=O)O)[C@@H](O)C[C@H]1O [Prostaglandin F2α, prostaglandin F2a]
1.59

These entries and their values trace back to patent US20150377876A1.
